Measured koff accompanies every entry in the list below.
# testSystem: T1, recombinant extracellular domain of CD38 (human, UniProt P28907 43-300)
# T1 construct: also called CD38 extracellular domain; AtaGenix ATMP00140HU
# assayComment: Biacore SPR
Unit s⁻¹ implied. Number only.

Sample answers from the record:
binder	koff (s⁻¹)
FTL004-hu-13 (antibody, human IgG1, kappa, V domains shown, also called FLT004-hu-13; FTL004-hum-13) VH: EVQLVQSGAEVKKPGATVKISCKASGYTFTDYNVHWIQQAPGKGLEWIGYFYPRNGATHYNQKFTGRATLTADTSTDTAYMEISSLRSEDTAVYFCARGETPGTFPYWGQGTLVTVSS VL: DIVLTQSPASLAVSPGQRATITCRASESVDNFGITFMHWYQQKPGQPPKLLIYRASNLESGVPARFSGSGSRTDFTLTINPVEANDTANYYCQQSSKDPRTFGQGTKLEIKR	0.000853
FTL004-hu-2 (antibody, human IgG1, kappa, V domains shown, also called FLT004-hu-2; FTL004-hum-2) VH: QVQLVQSGSELKKPGASVKVSCKASGYTFTDYNVHWIRQAPGQGLEWIGYFYPRNGATHYAQGFTGRAVLSADTSVSTAYLQISSLKAEDTAVYYCARGETPGTFPYWGQGTLVTVSS VL: DIVLTQSPASLAVSPGQRATITCRASESVDNFGITFMHWYQQKPGQPPKLLIYRASNLESGVPARFSGSGSRTDFTLTINPVEANDTANYYCQQSSKDPRTFGQGTKLEIKR	0.00285
FTL004-hu-8 (antibody, human IgG1, kappa, V domains shown, also called FLT004-hu-8; FTL004-hum-8) VH: QVQLVQSGAEVKKPGASVKVSCKASGYTFTDYNVHWIRQAPGQGLEWIGYFYPRNGATHYAQKFQGRVTMTVDTSTSTAYMELSSLRSEDTAVYYCARGETPGTFPYWGQGTLVTVSS VL: DIVLTQSPASLAVSPGQRATITCRASESVDNFGITFMHWYQQKPGQPPKLLIYRASNLESGVPARFSGSGSRTDFTLTINPVEANDTANYYCQQSSKDPRTFGQGTKLEIKR	0.00257

Could you now consider this next binder?
Fill in the blank: the reported koff of FTL004-hu-14 (antibody, human IgG1, kappa, V domains shown, also called FLT004-hu-14; FTL004-hum-14) VH: EVQLVQSGAEVKKPGATVKISCKASGYTFTDYNVHWIQQAPGKGLEWIGYFYPRNGATHYAEKFQGRVTLTADTSTDTAYMELSSLRSEDTAVYYCARGETPGTFPYWGQGTLVTVSS VL: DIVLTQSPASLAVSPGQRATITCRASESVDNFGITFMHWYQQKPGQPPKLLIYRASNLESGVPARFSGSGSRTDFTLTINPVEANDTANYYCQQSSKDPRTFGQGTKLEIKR is ____. 0.00466

From: patent US20240400711A1
